- assay.explanation: Solubility of TOSUs in oxirane coreactant systems
- Type: physicochemical
- measurement.setup: 25° C.
# Solubility in oxirane base UVR 6105/PTHF (80/20) annotations
Quick reminder: number only, in wt %, skip the unit.

Problem: # Solubility in oxirane base UVR 6105/PTHF (80/20) lookup, item C1CC2OC2CC1CC1COC2(OC1)OCC(CC1CCC3OC3C1)CO2 (centres unmarked) [BOCHM]
Result: 25

Problem: What does the data say about its Solubility in oxirane base UVR 6105/PTHF (80/20)? Entry: C1=CCC(CC2COC3(OC2)OCC(CC2CC=CCC2)CO3)CC1 (centres unmarked) [BCHEM]
Result: 25

Problem: Reported Solubility in oxirane base UVR 6105/PTHF (80/20) for CC1CC2OC2CC1CC1COC2(OC1)OCC(CC1CC3OC3CC1C)CO2 (centres unmarked) [BMOCHM] : what is it?
Result: 25

Okay, now this molecule:
Problem: For the molecule shown here, CCC1(CC)COC2(COC3(CCC4OC4C3)OC2)OC1 (centres unmarked) [DEODSH] , give the reported Solubility in oxirane base UVR 6105/PTHF (80/20).
Result: 40

###

Catalogue of Solubility in oxirane base BOCPE readings, one per entry.
- assay.explanation: Solubility of TOSUs in oxirane coreactant systems
- Format: physicochemical
- measurement.setup: 25° C.

The following compounds have reported results that may help.
Problem: What value of Solubility in oxirane base BOCPE has been recorded for this entry: CC1CC2OC2CC1CC1COC2(OC1)OCC(CC1CC3OC3CC1C)CO2 (centres unmarked) [BMOCHM]
Result: <10 wt %

Problem: // lookup Solubility in oxirane base BOCPE for C1OC2(OCC13CC1OC1C3)OCC1(CO2)CC2OC2C1 (centres unmarked) [DOTSHX]
Result: <5 wt %

Problem: Please look up its Solubility in oxirane base BOCPE: C1CC2OC2CC1CC1COC2(OC1)OCC(CC1CCC3OC3C1)CO2 (centres unmarked) [BOCHM]
Result: <10 wt %

Problem: # query: Solubility in oxirane base BOCPE of entry CCC1(CC)COC2(COC3(CCC4OC4C3)OC2)OC1 (centres unmarked) [DEODSH]
Result: >10 wt %

Continue with the next compound.
Problem: Any idea what its Solubility in oxirane base BOCPE is? The compound is C1CC2(COC3(OC2)OCC2(CCC4OC4C2)CO3)CC2OC12 (centres unmarked) [DOTSHH]
Result: 10 wt %

Ref: patent US7232852B2
